Value source: patent US8546392B2

assay.comment: In vivo pharmacokinetics (rat), cassette dosing method
cond: cassette dosing perorally 10 mg/kg, male Wistar rats
The entries below come with measured tz values attached.
readout.label: tz (h)

- Oc1cccc(-c2ccc3c(-c4cccc(O)c4)c(O)ccc3c2)c1 [Compound 57, 1,6-Bis(3-hydroxyphenyl)naphthalene-2-ol]: 10.0
- Oc1cccc(-c2ccc3cc(O)ccc3c2)c1 [Compound 19, 6-(3-Hydroxyphenyl)-2-naphthol]: 24.0
- Nc1cccc(-c2c(O)ccc3cc(-c4cccc(O)c4)ccc23)c1: 24.0

====

measured.target: 17β-HSD1 (Homo sapiens (Human))
Sequence (P14061 whole entry): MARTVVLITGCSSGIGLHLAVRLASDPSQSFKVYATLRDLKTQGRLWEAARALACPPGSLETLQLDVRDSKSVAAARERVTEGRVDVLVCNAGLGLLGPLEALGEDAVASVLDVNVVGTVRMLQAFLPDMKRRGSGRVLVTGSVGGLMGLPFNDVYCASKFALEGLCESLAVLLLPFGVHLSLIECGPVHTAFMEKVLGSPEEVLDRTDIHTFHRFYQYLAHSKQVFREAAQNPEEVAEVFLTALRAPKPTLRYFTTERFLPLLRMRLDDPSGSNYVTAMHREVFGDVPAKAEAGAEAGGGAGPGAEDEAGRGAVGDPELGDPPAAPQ
assay.comment: 17β-HSD1 test assay (recombinant protein from Sf9 insect cells, 3H-estrone/NADPH)
Type: biochemical
cond: read-out: HSD 1 μM (% inhibition of HSD1); inhibitor 1 μM
readout.label: inhibition at 1 µM

* Oc1ccc(-c2ccc3cc(O)ccc3c2)cc1 [Compound 20, 6-(4-Hydroxyphenyl)-2-naphthol] | < 10%
* Oc1cccc(-c2cnc3ccccc3c2)c1 | < 10%
* Oc1ccc2cc(-c3cccs3)ccc2c1 | < 10%
* CNC(=O)/C=C/c1cc(O)cc(-c2ccc3cc(O)ccc3c2)c1 | < 10%
* N#Cc1cc(O)cc2ccc(-c3cccc(O)c3)cc12 | 94%
* Cc1noc(NC(=O)c2c(O)ccc3cc(-c4cccc(O)c4)ccc23)c1C | 70%
* CC(=O)Nc1ccc(-c2ccc3cc(O)ccc3c2)cc1O | < 10%
* CSc1nccc(-c2ccc(S(=O)(=O)Nc3cccc(-c4c(O)ccc5cc(-c6cccc(O)c6)ccc45)c3)s2)n1 | 79.4%
* Oc1cccc(-c2cnc3cc(O)ccc3c2)c1 [Compound 16, 3-(3-Hydroxyphenyl)quinolin-7-ol] | 56.9%
* Nc1cccc(-c2c(O)ccc3cc(-c4cccc(O)c4)ccc23)c1 | 87.3%
* O=C(Nc1ccccc1)c1cc(O)cc(-c2ccc3cc(O)ccc3c2)c1 | < 10%
* Oc1ccc(-c2cnc3cc(O)ccc3c2)cc1 [Compound 15, 3-(4-Hydroxyphenyl)quinolin-7-ol] | < 10%
* O=C(c1c(O)ccc2cc(-c3cccc(O)c3)ccc12)N1CCNCC1 | 44.5%
* Oc1cccc(-c2cc3cc(O)ccc3[nH]2)c1 [Compound 1, 2-(3-Hydroxyphenyl)-1H-indol-5-ol] | < 10%
* Oc1cccc(-c2ccc3c(O)cccc3c2)c1 [Compound 24, 6-(3-Hydroxyphenyl)-1-naphthol] | < 10%
* OCc1ccc(-c2ccc3cc(O)ccc3c2)cc1 [Compound 11, 6-[4-(hydroxymethyl)phenyl]-2-naphthol] | 12.9%
* COc1ccc(-c2ccc3c(O)cccc3c2)cc1 | < 10%
* OCc1cccc(-c2ccc3cc(O)ccc3c2)c1 [Compound 10, 6-[3-(hydroxymethyl)-phenyl]-2-naphthol] | < 10%
* Oc1cccc(-c2ccc3cc(O)ccc3n2)c1 [Compound 12, 2-(3-Hydroxyphenyl)quinolin-6-ol] | 56.9%
* Oc1ccc(-c2cc(O)cc(-c3ccc4cc(O)ccc4c3)c2)cc1 | < 10%
* O=S(=O)(Nc1cccc(-c2c(O)ccc3cc(-c4cccc(O)c4)ccc23)c1)c1cccc2cccnc12 | 80.5%
* Oc1cccc(-c2ccc3ccccc3c2)c1 | 61%
* O=C(Nc1ccc(-c2ccc3cc(O)ccc3c2)cc1O)c1ccccc1 | < 10%
